Listed compounds paired with reported IC50
Biological target: UniProt Q9NWZ3
Sequence (Q9NWZ3 whole entry, species assumed): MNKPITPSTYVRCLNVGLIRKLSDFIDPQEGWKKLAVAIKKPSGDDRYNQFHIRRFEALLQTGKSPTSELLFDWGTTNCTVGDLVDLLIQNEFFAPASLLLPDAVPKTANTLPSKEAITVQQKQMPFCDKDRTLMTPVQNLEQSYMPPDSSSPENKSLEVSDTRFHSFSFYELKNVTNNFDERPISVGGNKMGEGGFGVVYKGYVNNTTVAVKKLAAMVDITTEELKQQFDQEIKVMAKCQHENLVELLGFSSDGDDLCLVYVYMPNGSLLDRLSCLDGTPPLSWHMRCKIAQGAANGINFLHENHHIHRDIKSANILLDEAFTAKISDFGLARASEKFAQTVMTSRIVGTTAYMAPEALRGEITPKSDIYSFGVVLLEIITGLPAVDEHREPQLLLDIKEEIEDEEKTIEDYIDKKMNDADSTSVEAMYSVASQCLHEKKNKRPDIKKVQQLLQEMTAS
Assay: IRAK4 Inhibition Assay
Assay type: biochemical
Details: IRAK4 Inhibition Assay; ATP 500 μM; read-out: IRAK4 IC50
outcome.measure: IC50 (nM)

[[record]]
test_smiles = "CC(C)(O)[C@H](F)CNC(=O)c1cnc(-n2ccc3cc(C#N)cnc32)cc1Nc1cnn(C2CCOCC2)c1"
assayed_target = "UniProt Q9NWZ3"
outcome_measure = "IC50"
unit_symbol = "nM"
number = 2.4

[[record]]
test_smiles = "CC(C)Nc1cc(-n2ncc3cc(C#N)cnc32)ncc1C(=O)NCCc1ccc(S(N)(=O)=O)cc1"
assayed_target = "UniProt Q9NWZ3"
outcome_measure = "IC50"
unit_symbol = "nM"
number = 3.1

[[record]]
test_smiles = "CC(C)(O)[C@H](F)CNC(=O)c1cnc(-n2ccc3cc(C#N)cnc32)cc1NC1CCOCC1"
assayed_target = "UniProt Q9NWZ3"
outcome_measure = "IC50"
unit_symbol = "nM"
number = 1

[[record]]
test_smiles = "COCCn1cc(Nc2cc(-n3ncc4cc(C#N)cnc43)ncc2C(=O)NC[C@@H](F)C(C)(C)O)cn1"
assayed_target = "UniProt Q9NWZ3"
outcome_measure = "IC50"
unit_symbol = "nM"
number = 3.2

